Reported IC50 is given for each of the following compounds.
- TARGET_SYSTEM: Recombinant human EP300 containing the bromodomain (EP300-BD (1040-1161)) (Homo sapiens)
- Construct: Recombinant human EP300 bromodomain (EP300-BD (1040-1161))
- Sequence (Q09472 1040-1161): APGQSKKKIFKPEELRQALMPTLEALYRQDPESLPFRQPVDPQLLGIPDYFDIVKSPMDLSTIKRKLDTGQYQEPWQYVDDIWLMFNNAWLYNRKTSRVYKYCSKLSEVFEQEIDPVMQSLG
- ASSAY_INFO: EP300 Alphascreen binding assay
ENDPOINT_NAME: IC50

Cc1noc(C)c1-c1cnc2c(c1)c(-c1ccc(C(=O)O)cc1)cn2C(C)c1ccc(F)cn1 (stereo not drawn) = 0.1 to 1000 nM
CCOc1c(F)c(C(=O)O)c(F)c(OCC)c1-c1cn(-c2ccc(F)cc2F)c2ncc(-c3c(C)noc3C)cc12 = 0.1 to 1000 nM
Cc1noc(C)c1-c1cnc2c(c1)c(-c1ccnc(C(=O)O)c1)cn2C(C1CC1)C1CC1 = 0.1 to 1000 nM
